experiment.notes: chemical genetic growth profiling, strain panel (AID 1159580);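 further: tested at 20 µM; growth read once vehicle control cultures reached saturation at 30 °C; 1 = growth at the plate median or of vehicle wells; lower values mean less growth of the strain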
condition.set: S. cerevisiae deletion strains, growth OD, locus YNR052C, strain pop2, hits give low values
Hit rate of the full screen: of about 5,500 compounds, about 2,000 (36%) were called active. Inconclusive results (about 18%) are left out. Some of the results follow.
quantity: normalized growth
Just the number, please, no unit attached.

Ask | Value lookup for normalized growth; key = `COc1ccc2ccc(=O)oc2c1CC=C(C)C`
Reply | 0.909

Ask | Also, `O=c1ccc2cc(O[C@@H]3O[C@H](CO)[C@@H](O)[C@H](O)[C@H]3O)c(O)cc2o1` please.
Reply | 0.994

Ask | Same question, C[C@]12CCC3C(CC[C@H]4CC(=O)CC[C@]34C)C1CCC2=O (some centres not stated) this time
Reply | 0.648

Ask | Note, next up: `COc1cc(O)c(C)c(O)c1`
Reply | 1.01

Ask | Please give the result for CC(=O)OCC(=O)[C@@]1(O)CCC2C3CCC4=CC(=O)CC[C@]4(C)[C@@]3(F)[C@@H](O)C[C@@]21C (some centres not stated) too.
Reply | 1

Ask | One more compound: `Cn1c(=O)[nH]c(=O)c2[nH]cnc21`
Reply | 0.97

Ask | Another compound to look at: `COc1cc2ccc(=O)oc2cc1O`
Reply | 1.03
